Assay: NCI Yeast Anticancer Drug Screen. Data for the cln2 rad14 strain (AID 165);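 further: 0% = growth equal to vehicle treated cultures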
Conditions: S. cerevisiae cln2 rad14 strain, at 50.0 µM, hits give high values
The panel holds about 79,000 compounds, 15% with a hit somewhere; the sample as a whole holds those more often.
Use 1 (yes) when the recorded growth inhibition is no lower than 10%; use 0 (no) when it is lower.

{"columns": ["compound", "cat"],
 "data": [
  ["Cc1coc2c1C(OC(=O)C(C)C)C1(C)C(C)CCC(O)C1C2=O (stereo not given)", "1 (yes)"],
  ["C=C(C)C(=O)OC1CC2(C)OC(=CC2=O)C(C)CC2OC(=O)C(=C)C12 (stereo not given)", "1 (yes)"],
  ["COc1ccc(C)cc1NC(=S)C#N", "0 (no)"],
  ["COc1cc(C)c2c(c1C=O)Oc1c(c(C)c(O)c3c1C(O)OC3=O)OC2=O (stereo not given)", "1 (yes)"],
  ["CC1=CC(=O)c2ccc(C)cc2C1=O", "0 (no)"],
  ["CCC/C(Cl)=N/OC(=O)Nc1cccc(F)c1", "1 (yes)"],
  ["COc1cc2c(c3c1c(=O)c1ccccc1n3C)C=C([N+](=O)[O-])C(C)(C)O2", "0 (no)"],
  ["C=CC1=C(C)C2=NC1=CC1=NC(=C(CC)/C1=C\\O)C=C1N=C3C(=C1C)C(=O)[C@H](C(=O)OC)C3=C1NC(=C2)[C@@H](C)[C@@H]1CCC(=O)O", "0 (no)"],
  ["CCOc1cc2c(cc1O)C=C[C@@H]1[C@@H]2CC[C@]2(C)[C@@H](O)CC[C@@H]12", "1 (yes)"]
]}

[ask] Check this compound for growth inhibition at or above 10%: COc1ccc(C2c3cc4c(c(OC)c3CC3OCC(=O)C32)OCO4)cc1OC (stereo not given)
[reply] 1 (yes)
